Item-by-item account of IC50
target: BACE1 (Homo sapiens (Human), UniProt P56817); test: In vitro enzymatic BACE1 FRET assay; format: biochemical; conditions: read-out: BACE1 Enzyme IC50
Sequence (P56817 46-501): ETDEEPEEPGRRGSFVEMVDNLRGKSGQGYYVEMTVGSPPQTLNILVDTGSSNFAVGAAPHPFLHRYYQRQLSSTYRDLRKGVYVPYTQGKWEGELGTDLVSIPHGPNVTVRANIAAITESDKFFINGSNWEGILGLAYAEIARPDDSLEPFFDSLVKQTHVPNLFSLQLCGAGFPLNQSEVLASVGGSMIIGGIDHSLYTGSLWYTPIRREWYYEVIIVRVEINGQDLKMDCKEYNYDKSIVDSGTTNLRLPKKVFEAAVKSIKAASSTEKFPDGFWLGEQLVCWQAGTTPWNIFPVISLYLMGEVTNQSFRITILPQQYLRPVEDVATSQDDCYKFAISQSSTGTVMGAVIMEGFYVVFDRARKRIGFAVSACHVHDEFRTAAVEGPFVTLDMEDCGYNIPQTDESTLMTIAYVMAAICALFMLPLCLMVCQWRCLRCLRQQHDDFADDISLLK

The following molecules have reported results that may help.
{"Molecule": "C#C[C@H](C)Oc1cnc(/C(F)=C/c2ccc(F)c([C@]3(CF)CS(=O)(=O)C(C)(C)C(N)=N3)c2)cn1", "IC50": "11 nM"}
{"Molecule": "COC[C@H](C)Oc1cnc(/C(F)=C/c2ccc(F)c([C@@]3(C)N=C(N)[C@@]4(CF)CC[C@@H]3S4(=O)=O)c2)cn1", "IC50": "13 nM"}
{"Molecule": "C[C@@]1(c2cc(/C=C(\\F)c3ccc(C#N)cn3)ccc2F)CS(=O)(=O)C2(CCC2)C(N)=N1", "IC50": "3 nM"}

The molecule CC1(C)C(N)=N[C@](CF)(c2cc(/C=C(\F)c3ccc(C#N)cn3)ccc2F)CS1(=O)=O showed IC50 equal to 13 nM

# IC50 of CC#C[C@@H](C)Oc1cnc(/C(F)=C/c2ccc(F)c([C@]3(C)CS(=O)(=O)C(C)(C)C(N)=N3)c2)cn1 (single isomer, unassigned) = 507 nM

Reported IC50 ( COC[C@H](C)Oc1cnc(/C(F)=C/c2ccc(F)c([C@]3(C)CS(=O)(=O)N(C)C(N)=N3)c2)cn1 ) = 11 nM

---

The entries below are paired with their reported pIC50.
molecular target: BACE1 (Homo sapiens (Human), UniProt P56817); assay: In vitro enzymatic BACE1 FRET assay; type: biochemical; conditions: read-out: BACE1 Enzyme IC50
The read-out pIC50 is expressed as -log10 of concentration in moles per litre.

Here is how some molecules turned out for pIC50.
{"Molecule": "CN1C(N)=N[C@](C)(c2cc(/C=C(\\F)c3ccc(C#N)cn3)cc(F)c2F)CS1(=O)=O [Example 107]", "pIC50": 8.52}
{"Molecule": "Cc1nnc(COc2cnc(/C(F)=C/c3ccc(F)c([C@]4(C)CS(=O)(=O)C(C)(C)C(N)=N4)c3)cn2)o1 [Example 176]", "pIC50": 6.95}
{"Molecule": "COCCOc1cnc(/C(F)=C/c2ccc(F)c([C@@]3(C)N=C(N)[C@@]4(CF)CC[C@@H]3S4(=O)=O)c2)cn1 [Example 130]", "pIC50": 7.48}
{"Molecule": "C#C[C@H](CC)Oc1cnc(/C(F)=C/c2ccc(F)c([C@]3(C)CS(=O)(=O)C(C)(C)C(N)=N3)c2)cn1 (single isomer, unassigned) [Example 178]", "pIC50": 8.52}
{"Molecule": "CN1C(N)=N[C@](C)(c2cc(/C=C(\\F)c3cc(F)c(Cl)cn3)ccc2F)CS1(=O)=O [Example 232]", "pIC50": 8.15}

Item CC1(C)C(N)=N[C@](C)(c2cc(/C=C(\F)c3cnc(Cl)cn3)cnc2F)CS1(=O)=O [Example 203] ; assay system BACE1 (Homo sapiens (Human), UniProt P56817); pIC50 reported as 6.90

Summary: Cc1noc(COc2cnc(/C(F)=C/c3ccc(F)c([C@@]4(C)N=C(N)N(C)S(=O)(=O)C45CC5)c3)cn2)n1 [Example 161] , BACE1 (Homo sapiens (Human), UniProt P56817), pIC50 = 7.10
